Quick reference for kinase still bound, per cent of control among some compounds
TARGET OR SYSTEM: DAPK2 (human)
EXPERIMENT SUMMARY: KINOMEscan competition binding
RUN PARAMETERS: compound 10.0 µM
# unit: % | format: bare number

# count of solved cases: 5
[[record]]
smiles_data = "COc1cc(C(N)=O)ccc1-c1ccc(/C=C2\\SC(=N)NC2=O)o1"
target_or_system = "DAPK2 (human)"
units_text = "%"
reported_measurement = 34

[[record]]
smiles_data = "N=C1NC(=O)/C(=C/c2ccc(-c3cccc4cc[nH]c34)o2)S1"
target_or_system = "DAPK2 (human)"
units_text = "%"
reported_measurement = 12

[[record]]
smiles_data = "CN1C(=O)c2ccccc2N(C)c2nc(Nc3ccc(N4CCC(O)CC4)cc3)ncc21"
target_or_system = "DAPK2 (human)"
units_text = "%"
reported_measurement = 100

[[record]]
smiles_data = "N=C1NC(=O)/C(=C/c2c[nH]c(=O)c(-c3ccc4cc[nH]c4c3)c2)S1"
target_or_system = "DAPK2 (human)"
units_text = "%"
reported_measurement = 4

[[record]]
smiles_data = "N=C1NC(=O)/C(=C/c2c[nH]c(=O)c(-c3ccc(N4CCNCC4)nc3)c2)S1"
target_or_system = "DAPK2 (human)"
units_text = "%"
reported_measurement = 2.3


Q) Reported kinase still bound, per cent of control for `N=C1NC(=O)/C(=C/c2ccc(-c3ccccc3O)o2)S1` : what is it?
A) 3.2

Q) Reported kinase still bound, per cent of control for `N=C1NC(=O)/C(=C/c2ccc(-c3ccc(S(N)(=O)=O)cc3)o2)S1` : what is it?
A) 16

* * *

TARGET OR SYSTEM: STK10 (human) (UniProt O94804)
Sequence (O94804 whole entry, looked up): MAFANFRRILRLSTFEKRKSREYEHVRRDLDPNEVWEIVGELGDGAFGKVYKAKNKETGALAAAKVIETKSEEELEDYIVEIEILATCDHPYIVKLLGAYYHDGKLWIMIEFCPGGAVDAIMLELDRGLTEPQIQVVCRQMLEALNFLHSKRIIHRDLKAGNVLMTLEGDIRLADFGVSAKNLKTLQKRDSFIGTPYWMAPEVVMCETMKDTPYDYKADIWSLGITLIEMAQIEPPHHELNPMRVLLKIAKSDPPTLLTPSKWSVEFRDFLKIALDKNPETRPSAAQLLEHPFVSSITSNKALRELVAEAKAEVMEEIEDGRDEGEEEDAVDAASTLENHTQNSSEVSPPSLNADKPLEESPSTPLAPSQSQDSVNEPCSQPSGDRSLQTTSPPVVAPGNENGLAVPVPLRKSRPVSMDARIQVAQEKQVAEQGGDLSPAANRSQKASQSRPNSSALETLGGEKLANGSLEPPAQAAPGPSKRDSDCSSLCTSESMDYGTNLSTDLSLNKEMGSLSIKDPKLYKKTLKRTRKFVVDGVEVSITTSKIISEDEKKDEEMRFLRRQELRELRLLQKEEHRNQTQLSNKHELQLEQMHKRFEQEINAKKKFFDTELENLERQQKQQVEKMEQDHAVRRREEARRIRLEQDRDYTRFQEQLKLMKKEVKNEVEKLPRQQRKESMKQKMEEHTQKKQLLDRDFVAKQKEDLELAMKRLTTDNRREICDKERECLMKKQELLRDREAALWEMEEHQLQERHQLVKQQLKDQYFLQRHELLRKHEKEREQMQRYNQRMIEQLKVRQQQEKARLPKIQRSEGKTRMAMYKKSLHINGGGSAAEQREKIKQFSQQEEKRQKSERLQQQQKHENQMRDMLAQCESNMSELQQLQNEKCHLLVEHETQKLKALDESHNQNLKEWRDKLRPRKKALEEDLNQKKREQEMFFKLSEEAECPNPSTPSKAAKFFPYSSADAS
EXPERIMENT SUMMARY: KINOMEscan competition binding
RUN PARAMETERS: compound 10.0 µM
Quick reference for kinase still bound, per cent of control among some compounds
# unit: % | format: bare number

# count of solved cases: 5
[[record]]
compound = "COc1cc(C(=O)NC2CCN(C)CC2)ccc1Nc1ncc2c(n1)N(C1CCCC1)C(C)CC(=O)N2C (centres undefined)"
units_text = "%"
reported_measurement = 29

[[record]]
compound = "CS(=O)(=O)Nc1ccc(-c2ncc(/C=C3\\SC(=N)NC3=O)s2)cc1"
units_text = "%"
reported_measurement = 6.8

[[record]]
compound = "COc1cc(N2CCN(C)CC2)ccc1Nc1ncc2c(n1)N(C)c1ccccc1N(C)C2=O"
units_text = "%"
reported_measurement = 100

[[record]]
compound = "CCN1CCN(Cc2cc(NC(=O)c3cccc4cc(-c5ccc(/C=C6\\SC(=O)NC6=O)o5)ccc34)cc(C(F)(F)F)c2)CC1"
units_text = "%"
reported_measurement = 0.15

[[record]]
compound = "NS(=O)(=O)c1ccc(-c2ccc(/C=C3/C(=O)NN(c4ccccc4)C3=O)o2)cc1"
units_text = "%"
reported_measurement = 27


Q) Reported kinase still bound, per cent of control for `CN1C(=O)c2ccccc2N(C)c2nc(Nc3ccc(N4CCC(O)CC4)cc3)ncc21` : what is it?
A) 100

Q) Reported kinase still bound, per cent of control for COc1cc(N2CCC(N3CCN(C)CC3)CC2)ccc1Nc1ncc2c(n1)N(C1CCCC1)C(C)CC(=O)N2 (centres undefined) : what is it?
A) 19

Q) Reported kinase still bound, per cent of control for `CN1C(=O)c2ccccc2N(C)c2nc(NS(=O)(=O)c3ccc(N)cc3)ncc21` : what is it?
A) 100

Q) Reported kinase still bound, per cent of control for `CS(=O)(=O)Nc1ccc(-c2cncc(/C=C3\SC(=N)NC3=O)c2)cc1` : what is it?
A) 26
